In this section we review reported koff values for a set of binders.
# system_under_test: T1, Recombinant human glypican-3 (aa 1-559), His-tagged, R&D Systems (human, UniProt P51654 25-559)
# T1 construct: also called huGPC3; Hu GPC3-His
# experimental_protocol: SPR, Biacore T100, GPC3-His immobilised, 1:1 fit
Number in s⁻¹, nothing else.

Answered examples (3):
[
  {
    "binder": "ADX_6077_F02 DG→SG mutant, alkylated (designed binder, C-terminal cysteine alkylated, also called P1-055668) VSDVPRDLEVVAATPTSLLISWSDDYHAHRYYRITYGETGGNSPVQEFTVPGEHVTATISGLKPGVDYTITVYAVTYSGEKAATDWSISINYRTPC",
    "experimental_result": 0.00221
  },
  {
    "binder": "ADX_6077_F02 alkylated (designed binder, C-terminal cysteine (of PC) alkylated with iodoacetamide, also called alkylated (capped) Adnectin; alkylated parent) MGVSDVPRDLEVVAATPTSLLISWSDDYHAHRYYRITYGETGGNSPVQEFTVPGEHVTATISGLKPGVDYTITVYAVTYDGEKAATDWSISINYRTPCHHHHHH",
    "experimental_result": 0.000534
  },
  {
    "binder": "ADX_6077_F02 DG→DA mutant, alkylated (designed binder, C-terminal cysteine alkylated, also called P1-055660; PI-055660) GVSDVPRDLEVVAATPTSLLISWSDDYHAHRYYRITYGETGGNSPVQEFTVPGEHVTATISGLKPGVDYTITVYAVTYDAEKAATDWSISINYRTPC",
    "experimental_result": 0.00183
  }
]

Bench note: what koff did ADX_6077_F02 DG→DS mutant, alkylated (designed binder, C-terminal cysteine alkylated, also called P1-055667) GVSDVPRDLEVVAATPTSLLISWSDDYHAHRYYRITYGETGGNSPVQEFTVPGEHVTATISGLKPGVDYTITVYAVTYDSEKAATDWSISINYRTPC show? 0.00166

Just for reference, patent US20230312686A1 is where these values come from.
